src = patent US20200377594A1

- assay system: T1, recombinant human CD3e (22-49)-Fc2 (K105-K330) (human)
- T1 construct: also called hCD3e(22-49)_Fc2(K105-K330); hCD3 epsilon 22-49/Fc
- experiment summary: ELISA, 5 nM antigen coated, IgG titrated, anti-human F(ab')2-AP detection
readout kind: pEC50
pEC50 field: float, defined as -log10 of concentration (mol/L).

So for mAb#München (antibody, human IgG1, lambda, V domains shown, also called Munchen) VH: EVQLVESGGGLVKPGGSLRLSCAASGFTFNTYAMNWVRQAPGKGLEWVGRIRSKYNNYATYYADSVKDRFTISRDDSKNTLYLQMNSLKTEDTAVYYCTTHGNFGNSYVSWFAYWGQGTLVTVSS VL: QTVVTQEPSLTVSPGGTVTLTCRSSTGAVTTSNYANWVQQKPGQAPRGLIGGTKFLAPGTPARFSGSLLGGKAALTLLGAQPEDEAEYYCALWYSNLWVFGGGTKLTVLG , the logged pEC50 turned out to be 9.22

So for mAb#Freiburg (antibody, human IgG1, lambda, V domains shown) VH: EVQLVESGGGLVKPGGSLRLSCAASGFTFNTYAMNWVRQAPGKGLEWVGRIRSKYNNYATYYADSVKDRFTISRDDSKNTLYLQMNSLKTEDTAVYYCTTHGNFGNSYVSWFAYWGQGTLVTVSS VL: QTVVTQEPSLTVSPGGTVTLTCRSSTGAVTTSNYANWVQQKPGQAPRGLIGGTNKRAPGTPARFSGSLLGGKAALTLLGAQPEDEAEYYCALWYSNLWVFGGGTKLTVLG , the logged pEC50 turned out to be 9.04

So for mAb#Gladbach (antibody, human IgG1, lambda, V domains shown) VH: QVQLVESGGGLVKPGGSLRLSCAASGFTFNTYAMNWIRQAPGKGLEWVSRIRSKYNNYATYYADSVKDRFTISRDNAKNSLYLQMNSLRAEDTAVYYCVRHGNFGNSYVSWFAYWGQGTLVTVSS VL: QTVVTQEPSLTVSPGGTVTLTCRSSTGAVTTSNYANWVQQKPGQAPRGLIGGTKFLAPGTPARFSGSLLGGKAALTLSGVQPEDEAEYYCALWYSNLWVFGGGTKLTVLG , the logged pEC50 turned out to be 9.42

So for mAb#Mainz (antibody, human IgG1, lambda, V domains shown) VH: QVQLVESGGGLVKPGGSLRLSCAASGFTFNTYAMNWIRQAPGKGLEWVSRIRSKYNNYATYYADSVKDRFTISRDNAKNSLYLQMNSLRAEDTAVYYCVRHGNFGNSYVSWFAYWGQGTLVTVSS VL: QAVVTQEPSLTVSPGGTVTLTCRSSTGAVTTSNYANWVQQKPGQAPRGLIGGTNKRAPWTPARFSGSLLGGKAALTITGAQAEDEADYYCALWYSNLWVFGGGTKLTVLG , the logged pEC50 turned out to be 8.92

So for mAb#Bremen (antibody, human IgG1, lambda, V domains shown) VH: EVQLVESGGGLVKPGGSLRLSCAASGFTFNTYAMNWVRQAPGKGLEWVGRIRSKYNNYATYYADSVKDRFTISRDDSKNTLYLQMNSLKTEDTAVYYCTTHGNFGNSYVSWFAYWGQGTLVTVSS VL: QTVVTQEPSLTVSPGGTVTLTCRSSTGAVTTSNYANWVQQKPGQAPRGLIGGTKFLAPGTPARFSGSLLGGKAALTLSGVQPEDEAEYYCALWYSNLWVFGGGTKLTVLG , the logged pEC50 turned out to be 8.96

So for SP34 (m/h chimeric) IgG (antibody, V domains shown, Murine SP34 variable domains tested as mouse/human chimeric IgG; also called SP34 IgG (m/h chimera)) VH: EVQLVESGGGLVQPKGSLKLSCAASGFTFNTYAMNWVRQAPGKGLEWVARIRSKYNNYATYYADSVKDRFTISRDDSQSILYLQMNNLKTEDTAMYYCVRHGNFGNSYVSWFAYWGQGTLVTVSS VL: QAVVTQESALTTSPGETVTLTCRSSTGAVTTSNYANWVQEKPDHLFTGLIGGTNKRAPGVPARFSGSLIGDKAALTITGAQTEDEAIYFCALWYSNLWVFGGGTKLTVLG , the logged pEC50 turned out to be 9.41
